target: UniProt Q52012; experiment: biochemical; format: binding, Agrobacterium tumefaciens C58; conditions: AccA 2 μM, 22°C, 25 mM Tris-HCl pH 8.0, 150 mM NaCl, one binding site model; ND: no signal detected; read-out: apparent KD (autofluorescence titration)
Sequence (Q52012 entry or part of it): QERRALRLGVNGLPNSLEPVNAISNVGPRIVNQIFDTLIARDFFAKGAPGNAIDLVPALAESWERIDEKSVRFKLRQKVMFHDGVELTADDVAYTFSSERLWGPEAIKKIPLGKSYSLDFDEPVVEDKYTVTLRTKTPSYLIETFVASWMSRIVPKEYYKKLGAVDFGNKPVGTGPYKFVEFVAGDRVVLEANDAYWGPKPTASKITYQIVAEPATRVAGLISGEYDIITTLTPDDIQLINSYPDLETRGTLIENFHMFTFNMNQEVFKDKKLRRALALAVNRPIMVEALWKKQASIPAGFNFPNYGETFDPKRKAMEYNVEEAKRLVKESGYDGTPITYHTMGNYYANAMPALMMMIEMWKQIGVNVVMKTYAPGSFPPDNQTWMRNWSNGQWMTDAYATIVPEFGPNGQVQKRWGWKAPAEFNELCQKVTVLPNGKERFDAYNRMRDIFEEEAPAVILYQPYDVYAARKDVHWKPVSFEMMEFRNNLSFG
Reported pKd values for a set of compounds
Remember the convention: pKd equals -log10 of concentration in molar.

{"compound": "O=C[C@H](OP(=O)(O)O)[C@@H](O)[C@@H](O)CO [L-arabinose-2-phosphate]", "study-target": "UniProt Q52012", "meas-value": 5.53}

We next turn to a different compound, shown below.
Given the compound CC(C)OP(=O)(O)O[C@H]1C(O)OC[C@H](O)[C@@H]1O (stereo partly drawn) [L-arabinose-2-isopropylphosphate] , what is its reported pKd?
5.32

Attribution: paper PMC4526662
